Please provide measured The autosampler MCM ± SD (24h) for the entries that follow.
# TEST SUMMARY: Stability of the analytes in human plasma at QC levels
# Format: in vitro ADME
# CONDITION DETAILS: high QC; autosampler r.t., 24 h; n = 5

// solved cases for The autosampler MCM ± SD (24h) follow
[[record]]
compound = "CCC(=O)OCC(=O)[C@@]1(OC(=O)CC)[C@@H](C)C[C@H]2[C@@H]3CCC4=CC(=O)C=C[C@]4(C)[C@@]3(F)[C@@H](O)C[C@@]21C [BDP, betamethasone dipropionate]"
measured_attribute = "The autosampler MCM ± SD (24h)"
measured = "41.59 ± 1.016 × 10^−9 mol·dm^−3"

[[record]]
compound = "CCC(=O)O[C@]1(C(=O)CO)[C@@H](C)C[C@H]2[C@@H]3CCC4=CC(=O)C=C[C@]4(C)[C@@]3(F)[C@@H](O)C[C@@]21C [B17P, betamethasone 17-monopropionate]"
measured_attribute = "The autosampler MCM ± SD (24h)"
measured = "3.295 ± 0.304 × 10^−9 mol·dm^−3"

[[record]]
compound = "C[C@H]1C[C@H]2[C@@H]3CCC4=CC(=O)C=C[C@]4(C)[C@@]3(F)[C@@H](O)C[C@]2(C)[C@@]1(O)C(=O)COP(=O)([O-])[O-].[Na+].[Na+] [BSP, betamethasone sodium phosphate]"
measured_attribute = "The autosampler MCM ± SD (24h)"
measured = "313.6 ± 35.39 × 10^−9 mol·dm^−3"

[[record]]
compound = "C[C@H]1C[C@H]2[C@@H]3CCC4=CC(=O)C=C[C@]4(C)[C@@]3(F)[C@@H](O)C[C@]2(C)[C@@]1(O)C(=O)CO"
measured_attribute = "The autosampler MCM ± SD (24h)"
measured = "53.47 ± 2.906 × 10^−9 mol·dm^−3"


Request the reported The autosampler MCM ± SD (24h) associated with CCC(=O)OCC(=O)[C@@]1(O)[C@@H](C)C[C@H]2[C@@H]3CCC4=CC(=O)C=C[C@]4(C)[C@@]3(F)[C@@H](O)C[C@@]21C [B21P, betamethasone 21-monopropionate]
3.960 ± 0.160 × 10^−9 mol·dm^−3
